- MEASURED ON: mAChR M4 (Homo sapiens)
- Construct: expressed in transfected cells; host or cells: CHO-K1 cells stably transfected with M4 cDNA and chimeric G-protein Gqi5
- ASSAY INFO: mAChR M4 cell-based functional assay (calcium mobilization, potentiation of EC20 acetylcholine response)
- CONDITION PARAMETERS: mAChR M4 cell-based functional assay; >10,000 estimated for low potency compounds without plateau; read-out: EC50
ATTRIBUTE MEASURED: EC50 (nM)

Recorded EC50, per entry:
INSERT INTO assay_data (compound, measured_on, endpoint_value) VALUES
  ('Cc1nnc2sc(C(=O)N3CC(Sc4ccc(F)c(F)c4)C3)c(N)c2c1C', 'mAChR M4 (Homo sapiens)', 340),
  ('Cc1nnc2sc(C(=O)NC3CN(S(=O)(=O)c4ccco4)C3)c(N)c2c1C', 'mAChR M4 (Homo sapiens)', 160),
  ('Cc1nnc2sc(C(=O)NC3CN(C(=O)c4ccccc4)C3)c(N)c2c1C', 'mAChR M4 (Homo sapiens)', 78);

a: Cc1nnc2sc(C(=O)NC3CN(c4ncc(-c5ccccc5)s4)C3)c(N)c2c1C
b: Cc1nnc2sc(C(=O)N3CCC(NS(=O)(=O)c4ccc(F)cc4)C3)c(N)c2c1C (stereo not drawn)
[in] Of the pair a and b , name the member with the lesser recorded EC50. # answer = label of selected item
[out] a

a: Cc1nnc2sc(C(=O)NC3CCN(c4ccc(Cl)cc4)C3)c(N)c2c1C (stereo not drawn)
b: Cc1nnc2sc(C(=O)NC3CN(C(=O)Oc4ccccc4)C3)c(N)c2c1C
[in] Could you determine which record has the numerically smaller EC50? Candidates: a and b Mark your selection by writing its label.
[out] b

P: Cc1nnc2sc(C(=O)N3C[C@@H]4C[C@@H]3CN4S(C)(=O)=O)c(N)c2c1C
Q: Cc1nnc2sc(C(=O)NC3CN(S(C)(=O)=O)C3)c(N)c2c1C
[in] Higher EC50 between P and Q ? Please indicate the selected item by its label.
[out] P
(P: 5100 nM, Q: 210 nM)

* * *

- MEASURED ON: mAChR M4 (Homo sapiens)
- Construct: expressed in transfected cells; host or cells: CHO-K1 cells stably transfected with M4 cDNA and chimeric G-protein Gqi5
- Sequence (P08173 1-479): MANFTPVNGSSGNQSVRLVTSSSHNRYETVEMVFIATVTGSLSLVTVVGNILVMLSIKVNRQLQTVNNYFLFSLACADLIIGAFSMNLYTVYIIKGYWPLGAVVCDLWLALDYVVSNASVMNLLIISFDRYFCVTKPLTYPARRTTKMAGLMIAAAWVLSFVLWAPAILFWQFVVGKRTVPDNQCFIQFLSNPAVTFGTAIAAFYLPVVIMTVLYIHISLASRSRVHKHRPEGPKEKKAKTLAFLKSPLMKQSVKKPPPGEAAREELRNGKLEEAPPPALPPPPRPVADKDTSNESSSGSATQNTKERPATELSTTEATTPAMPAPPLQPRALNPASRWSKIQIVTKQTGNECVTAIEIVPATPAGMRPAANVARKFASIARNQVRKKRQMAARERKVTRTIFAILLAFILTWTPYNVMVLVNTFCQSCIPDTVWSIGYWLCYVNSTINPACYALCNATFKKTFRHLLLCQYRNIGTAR
- ASSAY INFO: mAChR M4 cell-based functional assay (calcium mobilization, potentiation of EC20 acetylcholine response)
- CONDITION PARAMETERS: % ACh maximum at 30 μM
ATTRIBUTE MEASURED: Emax at 30 µM (%)

Below, each entry is followed by its recorded Emax at 30 µM result.
INSERT INTO assay_data (compound, measured_on, endpoint_value) VALUES
  ('Cc1nnc2sc(C(=O)NCc3cnccn3)c(N)c2c1C [Example B10]', 'mAChR M4 (Homo sapiens)', 82),
  ('Nc1c(C(=O)NCc2cccc(F)c2)sc2nnccc12 [Example B21]', 'mAChR M4 (Homo sapiens)', 59),
  ('COc1ccc([C@@H]2C[C@H]2NC(=O)c2sc3nnc(C)c(C)c3c2N)cc1 (single isomer, unassigned) [Example B32]', 'mAChR M4 (Homo sapiens)', 73),
  ('Cc1nnc2sc(C(=O)NC3CCCCC3)c(N)c2c1C [Example B97]', 'mAChR M4 (Homo sapiens)', 75),
  ('Cc1nnc2sc(C(=O)NCc3cc(F)c(F)cc3F)c(N)c2c1C [Example B45]', 'mAChR M4 (Homo sapiens)', 71),
  ('Cc1nnc2sc(C(=O)N3CCCn4nccc43)c(N)c2c1C [Example B445]', 'mAChR M4 (Homo sapiens)', 31),
  ('Cc1nnc2sc(C(=O)NC3CCN(C(=O)OCc4ccccc4)C3)c(N)c2c1C (stereo not drawn) [Example B206]', 'mAChR M4 (Homo sapiens)', 64),
  ('Cc1nnc2sc(C(=O)NCc3ccc(CN4CCOCC4)cc3)c(N)c2c1C [Example B441]', 'mAChR M4 (Homo sapiens)', 79);

1: Cc1nnc2sc(C(=O)NC3CN(c4nc5ccccc5s4)C3)c(N)c2c1C [Example B422]
2: Cc1nnc2sc(C(=O)N3CC(NCc4cccnc4)C3)c(N)c2c1C [Example B62]
[in] Name the one with the greater Emax at 30 µM value, either 1 or 2 as given. Record your answer as the label of the chosen record.
[out] 1
(1: 73%, 2: 34%)

* * *

- MEASURED ON: mAChR M4 (Homo sapiens)
- Construct: expressed in transfected cells; host or cells: CHO-K1 cells stably transfected with M4 cDNA and chimeric G-protein Gqi5
- Sequence (P08173 1-479): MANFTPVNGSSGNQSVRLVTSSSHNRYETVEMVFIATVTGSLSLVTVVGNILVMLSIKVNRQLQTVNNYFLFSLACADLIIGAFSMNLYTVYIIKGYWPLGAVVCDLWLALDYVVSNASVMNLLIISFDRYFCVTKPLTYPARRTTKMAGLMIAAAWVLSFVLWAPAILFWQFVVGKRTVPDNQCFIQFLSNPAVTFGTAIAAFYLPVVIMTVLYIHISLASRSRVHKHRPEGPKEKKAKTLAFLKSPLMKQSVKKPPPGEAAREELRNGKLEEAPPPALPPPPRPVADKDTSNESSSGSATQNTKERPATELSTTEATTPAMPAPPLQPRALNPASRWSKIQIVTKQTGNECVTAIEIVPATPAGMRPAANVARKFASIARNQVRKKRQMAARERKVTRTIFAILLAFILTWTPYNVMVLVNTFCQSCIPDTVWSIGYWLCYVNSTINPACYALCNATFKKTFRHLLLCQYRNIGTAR
- ASSAY INFO: mAChR M4 cell-based functional assay (calcium mobilization, potentiation of EC20 acetylcholine response)
- CONDITION PARAMETERS: mAChR M4 cell-based functional assay; >10,000 estimated for low potency compounds without plateau; read-out: EC50
ATTRIBUTE MEASURED: EC50 (nM)

Below are worked cases with known answers.
INSERT INTO assay_data (compound, attribute_measured, display_unit, endpoint_value) VALUES
  ('Cc1cc(-c2ccc(CNC(=O)c3sc4nnc(C)c(C)c4c3N)cc2)cnc1F [Example B484]', 'EC50', 'nM', 110),
  ('Cc1nnc2sc(C(=O)NC3CN(S(=O)(=O)c4ccoc4)C3)c(N)c2c1C [Example B100]', 'EC50', 'nM', 180),
  ('Cc1nnc2sc(C(=O)N3CCC4(CCCC4)C3)c(N)c2c1C [Example B381]', 'EC50', 'nM', 710),
  ('COc1ccccc1N1CCC(NC(=O)c2sc3nnc(C)c(C)c3c2N)C1 (stereo not drawn) [Example B271]', 'EC50', 'nM', 3000);

A: Cc1nnc2sc(C(=O)NCc3ccc(-c4ccnc(F)c4)cc3)c(N)c2c1C [Example B461]
B: Cc1nnc2sc(C(=O)NCc3ccc(-c4cnc5ccccc5c4)cc3)c(N)c2c1C [Example B497]
[in] When their EC50 values are compared, which is larger, A or B ? Answer with the label corresponding to your selection.
[out] B
(B: 710 nM, A: 23 nM)

I: Cc1nnc2sc(C(=O)NC3CCN(C(=O)Cc4cccs4)C3)c(N)c2c1C (stereo not drawn) [Example B227]
II: Cc1nnc2sc(C(=O)N3CC(F)(c4ccncc4)C3)c(N)c2c1C [Example B312]
III: Cc1nnc2sc(C(=O)NC3CN(C(=O)c4ccc5c(c4)OCO5)C3)c(N)c2c1C [Example B133]
IV: Cc1nnc2sc(C(=O)NCc3ccc(S(=O)(=O)CF)cc3)c(N)c2c1C [Example B132]
V: Cc1nnc2sc(C(=O)NCc3ccc(F)nc3)c(N)c2c1C [Example B440]
[in] I would appreciate it if you could sort these 5 compounds by EC50, starting from the smallest number. Dear reader, please state the labels in the requested order.
[out] IV, III, V, I, II

I: Cc1nnc2sc(C(=O)N3CC4(CN(C(=O)OCc5ccccc5)C4)C3)c(N)c2c1C [Example B398]
II: Cc1nnc2sc(C(=O)NCc3nccs3)c(N)c2c1C [Example B11]
III: Cc1nnc2sc(C(=O)NCc3ccc(C(F)(F)F)nc3)c(N)c2c1C [Example B443]
IV: Cc1ccc(S(=O)(=O)N2CCC(NC(=O)c3sc4nnc(C)c(C)c4c3N)C2)s1 (stereo not drawn) [Example B215]
V: Cc1nnc2sc(C(=O)N3CCC(NC(=O)C4CCCCC4)C3)c(N)c2c1C (stereo not drawn) [Example B237]
[in] I would appreciate it if you could sort these 5 compounds by EC50, starting from the smallest number. # output: labels, in the requested order
[out] III, IV, I, II, V
